molecular target: pSTAT3 (pY705-STAT3) (Homo sapiens, UniProt P40763); construct: host or cells: cryopreserved PBMC; assay: MSD-pSTAT-PBMC Assay (pSTAT3, IL-6 stimulated); format: cell-based
Sequence (P40763 whole entry): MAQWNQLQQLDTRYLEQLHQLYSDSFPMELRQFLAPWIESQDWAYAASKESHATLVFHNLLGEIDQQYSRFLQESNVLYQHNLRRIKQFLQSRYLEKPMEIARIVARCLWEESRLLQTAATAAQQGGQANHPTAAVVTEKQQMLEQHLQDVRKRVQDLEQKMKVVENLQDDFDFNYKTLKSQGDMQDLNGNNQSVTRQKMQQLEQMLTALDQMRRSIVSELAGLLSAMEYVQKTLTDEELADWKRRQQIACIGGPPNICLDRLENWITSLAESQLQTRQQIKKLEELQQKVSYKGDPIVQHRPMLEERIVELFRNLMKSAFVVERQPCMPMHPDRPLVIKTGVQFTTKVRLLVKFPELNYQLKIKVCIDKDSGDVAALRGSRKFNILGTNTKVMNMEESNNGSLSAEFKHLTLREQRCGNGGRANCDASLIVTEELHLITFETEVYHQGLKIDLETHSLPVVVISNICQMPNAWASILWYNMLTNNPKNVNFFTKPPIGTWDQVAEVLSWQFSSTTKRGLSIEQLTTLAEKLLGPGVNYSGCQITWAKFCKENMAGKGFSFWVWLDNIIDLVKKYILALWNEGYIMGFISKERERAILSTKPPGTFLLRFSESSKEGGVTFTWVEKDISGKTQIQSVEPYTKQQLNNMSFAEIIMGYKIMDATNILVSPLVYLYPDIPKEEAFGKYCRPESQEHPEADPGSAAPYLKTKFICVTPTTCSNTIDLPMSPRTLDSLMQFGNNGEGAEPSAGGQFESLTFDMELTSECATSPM
pIC50: −log10 of the molar value.
experimental.endpoint: pIC50

Data request: Tell me the measured pIC50 of CCCOC(=O)[C@H](C)NP(=O)(Oc1ccccc1)C(F)c1ccc2sc(C(=O)N[C@H]3C[C@@H]4C[C@@H]4C[C@H]4CC[C@@H](C(=O)N5CC(c6cncnc6N6CCC6)C5)N4C3=O)cc2c1 (stereo partly shown) [Compound 412] , please.
Data returned: > 7.00
